target: Toll-like receptor 4 (Mus musculus, UniProt Q9QUK6); experiment: Inhibition of TLR4 in LPS-stimulated mouse RAW264.7 cells assessed as reduction of TNFalpha production after 24 hrs by ELISA; type: cell-based
endpoint: pIC50
# log scale: pIC50 equals minus log10 of the concentration in mol/L

Find the measured pIC50 of `COC(=O)C(=Cc1ccccc1[N+](=O)[O-])C(=O)OC` and report it. 5.81

====

target: Toll-like receptor 4 (Mus musculus, UniProt Q9QUK6); assay: Inhibition of TLR4 in LPS-stimulated mouse RAW264.7 cells assessed as reduction of NO production after 24 hrs; format: cell-based
endpoint: IC50 (nM)
A number alone suffices; assume nM.

# compound, units-symbol, observed
records = [
    ("COC(=O)C(=Cc1cccc(OC)c1)C(=O)OC", "nM", 3720),
    ("COc1cc(/C=C/C(=O)CC(=O)/C=C/c2ccc(O)c(OC)c2)ccc1O [CURCUMIN]", "nM", 6000),
    ("COC(=O)C(=Cc1ccc(F)cc1)C(=O)OC", "nM", 710),
    ("O=C(O)C(=Cc1ccccc1[N+](=O)[O-])C(=O)O", "nM", 520),
    ("COC(=O)C(=Cc1ccc([N+](=O)[O-])cc1)C(=O)OC", "nM", 820),
    ("COC(=O)C(=Cc1ccccc1Cl)C(=O)OC", "nM", 820),
    ("O=C(O)C(=Cc1ccccc1F)C(=O)O", "nM", 410),
    ("COC(=O)C(=Cc1ccc(F)cc1F)C(=O)OC", "nM", 420),
    ("COC(=O)C(=Cc1ccc(OC)cc1)C(=O)OC", "nM", 1240),
    ("COC(=O)C(=Cc1ccccc1OC)C(=O)OC", "nM", 740),
]

Tell us which IC50 value is on record for `COC(=O)C(=Cc1ccccc1[N+](=O)[O-])C(=O)OC` 310

Annotate the compound `COC(=O)C(=Cc1cccc(F)c1)C(=O)OC` with its measured IC50. 2530

====

Target: Toll-like receptor 4 (Mus musculus, UniProt Q9QUK6)
Sequence (Q9QUK6 whole entry): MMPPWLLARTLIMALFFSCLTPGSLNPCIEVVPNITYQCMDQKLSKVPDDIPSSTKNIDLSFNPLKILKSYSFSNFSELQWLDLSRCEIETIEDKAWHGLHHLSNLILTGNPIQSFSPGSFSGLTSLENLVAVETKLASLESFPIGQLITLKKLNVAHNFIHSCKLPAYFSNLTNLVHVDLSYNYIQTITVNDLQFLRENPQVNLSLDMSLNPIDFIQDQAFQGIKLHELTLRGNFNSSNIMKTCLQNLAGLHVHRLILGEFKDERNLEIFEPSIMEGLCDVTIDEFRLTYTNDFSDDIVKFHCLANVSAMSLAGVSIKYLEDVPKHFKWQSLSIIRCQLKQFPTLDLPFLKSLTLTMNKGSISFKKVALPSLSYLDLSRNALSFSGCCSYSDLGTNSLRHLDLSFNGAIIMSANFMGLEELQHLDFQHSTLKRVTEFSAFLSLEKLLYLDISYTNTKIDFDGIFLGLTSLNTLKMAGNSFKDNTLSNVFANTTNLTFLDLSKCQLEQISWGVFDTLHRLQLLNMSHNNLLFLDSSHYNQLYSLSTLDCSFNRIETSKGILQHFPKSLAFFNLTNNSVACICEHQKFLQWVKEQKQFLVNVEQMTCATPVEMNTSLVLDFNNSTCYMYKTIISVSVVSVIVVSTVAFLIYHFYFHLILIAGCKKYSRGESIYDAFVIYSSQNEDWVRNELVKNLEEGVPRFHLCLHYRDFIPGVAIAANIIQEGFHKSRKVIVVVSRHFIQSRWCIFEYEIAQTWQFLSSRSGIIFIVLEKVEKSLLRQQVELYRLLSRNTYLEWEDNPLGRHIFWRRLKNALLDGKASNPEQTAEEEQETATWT
Assay: Inhibition of TLR4 in LPS-stimulated mouse RAW264.7 cells assessed as reduction of NO production after 24 hrs
Format: cell-based
Below, each entry is listed alongside its reported log10 IC50.
Record value = log10 of IC50 given in nM.

Complete the entry with log10 IC50 for `COC(=O)/C=C/c1ccccc1[N+](=O)[O-]` 3.66

Give the measured log10 IC50 for `COC(=O)C(=Cc1ccccc1)C(=O)OC` 2.91

Supply recorded log10 IC50 for `COC(=O)C(=Cc1ccc(C(=O)OC)cc1)C(=O)OC` here. 3.12

Find the measured log10 IC50 of `COc1ccc(C=C(C(=O)O)C(=O)O)cc1` and report it. 3.16

Note log10 IC50 for the compound shown: `COC(=O)C(=Cc1cccc([N+](=O)[O-])c1)C(=O)OC` 3.33

Item `COC(=O)C(=CC1CCCCC1)C(=O)OC` : provide log10 IC50 4.89

Find the measured log10 IC50 of `COC(=O)C(=Cc1ccc(OC)cc1OC)C(=O)OC` and report it. 2.91
